- TEST METHOD NOTES: Phase 1 single ascending dose (SAD) pharmacokinetics incl. food effect
- Type: in vivo, human
- TEST CONDITIONS: human, plasma, oral, 900 mg, Cohort 3, Regimen C, 900 mg, Fasted; geometric mean (geometric CV%); read-out: AUC0-last
READOUT TYPE: AUC(0-t) (ng·h/mL)
The reply should contain only the number, in ng·h/mL.

[ask] Give reported AUC(0-t) value for `CCN(CC)C(=O)c1ccccc1S(=O)(=O)NCC(=O)Nc1ccc(O)cc1`
[reply] 6810

----------
- TEST METHOD NOTES: Phase 1 single ascending dose (SAD) pharmacokinetics incl. food effect
- Assay type: in vivo, human
- TEST CONDITIONS: human, plasma, oral, 2000 mg, Cohort 4, Regimen E, Fasted; geometric mean (geometric CV%)
READOUT TYPE: AUC(0-inf)
Don't forget the unit after the value.

[ask] Give reported AUC(0-inf) value for `CCN(CC)C(=O)c1ccccc1S(=O)(=O)NCC(=O)Nc1ccc(O)cc1`
[reply] 19600 ng·h/mL

----------
- TEST METHOD NOTES: 7-day repeat-dose oral toxicity and toxicokinetic study, Phase II (non-GLP)
- Assay type: in vivo
- TEST CONDITIONS: both sexes, Beagle, dog, in vivo, 300 mg/kg/day; 30, 100, 300 mg/kg/d, days 1 and 7; read-out: Half-lives
READOUT TYPE: half-life

[ask] Give reported half-life value for `CCN(CC)C(=O)c1ccccc1S(=O)(=O)NCC(=O)Nc1ccc(O)cc1`
[reply] 1 to 3.5 h

----------
- TEST METHOD NOTES: Phase 1 single ascending dose (SAD) pharmacokinetics incl. food effect
- Format: in vivo, human
- TEST CONDITIONS: human, plasma, oral, 900 mg, Cohort 3, Regimen D, Fed; geometric mean (geometric CV%)
READOUT TYPE: Cmax (ng/mL)
The reply should contain only the number, in ng/mL.

[ask] Give reported Cmax value for `CCN(CC)C(=O)c1ccccc1S(=O)(=O)NCC(=O)Nc1ccc(O)cc1`
[reply] 1200

----------
- TEST METHOD NOTES: Phase 1 single ascending dose (SAD) pharmacokinetics incl. food effect
- Assay type: in vivo, human
- TEST CONDITIONS: human, plasma, oral, 900 mg, Cohort 3, Regimen D, 900 mg, Fed; geometric mean (geometric CV%); read-out: AUC0-last
READOUT TYPE: AUC(0-t) (ng·h/mL)
The reply should contain only the number, in ng·h/mL.

[ask] Give reported AUC(0-t) value for CCN(CC)C(=O)c1ccccc1S(=O)(=O)NCC(=O)Nc1ccc(O)cc1 [SRP-001]
[reply] 6130

Entry source: paper PMC11096368
